Ref: the supplement of paper PMC13380429

test system: HepG2; experiment: cell viability relative to DMSO; higher = less toxic; conditions: 72 h; 1 nM
I'd appreciate it if you could supply cell viability values for the items below.
Give bare numbers, in %.

Look over these answered cases.
Task: Any idea what its cell viability is? The compound is c1ccc(C2CN3CCSC3=N2)cc1 (stereo not drawn)
Output: 102

Task: Could you do the same for CO[C@H]1/C=C/O[C@@]2(C)Oc3c(C)c(O)c4c(O)c(c(/C=N/N5CCN(C)CC5)c(O)c4c3C2=O)NC(=O)/C(C)=C\C=C\[C@H](C)[C@H](O)[C@@H](C)[C@@H](O)[C@@H](C)[C@H](OC(C)=O)[C@@H]1C , please?
Output: 97.9

Task: Next entry: CN(C)C[C@H](O)Cn1c2ccc(Br)cc2c2cc(Br)ccc21 (racemic)
Output: 108

Task: Entry to check: C[N+](C)(C)CCCCCCCCCC[N+](C)(C)C
Output: 102

Task: What about Cc1ccccc1-n1c(Cn2ncc3c(N)ncnc32)nc2cccc(C)c2c1=O ?
Output: 95.5

For each of the compounds below, note its cell viability.
1. CCOc1ccccc1-n1c(C(C)N2CCN(C(=O)COc3ccc(Cl)cc3)CC2)nc2ccccc2c1=O (stereo not drawn)
2. N#C/C(=C1/SCC(c2ccccc2Cl)S1)n1ccnc1 (stereo not drawn)
3. COc1ncc(-c2ccc3nccc(-c4ccnnc4)c3c2)cc1NS(=O)(=O)c1ccc(F)cc1F

Output:
1. 96.6
2. 93.3
3. 98.8

---

tested on: Calu-3; assay: cell viability relative to DMSO; higher = less toxic; settings: 72 h; 10 nM
Answer each item with its documented cell viability.
Give bare numbers, in %.

Task: Recall the recorded cell viability for CCCCc1ccc(C(N)=O)nc1 [bupicomide] with Calu-3 and state it.
Output: 84.9

Task: Param item: Cc1cc(OCCCS(C)(=O)=O)cc(C)c1-c1cccc(COc2ccc3c(c2)OC[C@H]3CC(=O)O)c1
Output: 105

// input: 8 compounds below; output: cell viability for each
1. COCCCC/C(=N\OCCN)c1ccc(C(F)(F)F)cc1
2. Oc1ccc(Cl)cc1
3. O=C(OCCN1CCOCC1)C1(c2ccccc2)CCCCC1
4. Cc1cc(CC(=O)O)n(C)c1C(=O)c1ccc(Cl)cc1 [zomepirac]
5. COc1ccc2cc(C(C)C(=O)Oc3ccc(C(N)=S)cc3)ccc2c1 (stereo not drawn)
6. O=C1NCCN1CCN1CCC(c2cn(-c3ccc(F)cc3)c3ccc(Cl)cc23)CC1
7. CN(C)C[C@H](O)Cn1c2ccc(Br)cc2c2cc(Br)ccc21 (racemic)
8. CC1(C)Oc2ccc(C#N)cc2[C@@H](OC2=CC(=O)CC2)[C@@H]1O

Output:
1: 109; 2: 100; 3: 107; 4: 99.6; 5: 102; 6: 112; 7: 95.4; 8: 95.9

---

test system: Caco-2; assay: drug sensitivity score (DSS) for viability; higher = more toxic; extreme values may be limits of the assay; settings: 72 h
Exercise: state measured drug sensitivity score for each of the compounds provided.

Task: Can you look up drug sensitivity score on Caco-2 for CN[C@@H]1[C@H](O)[C@H](NC)[C@H]2O[C@@]3(O)C(=O)C[C@@H](C)O[C@H]3O[C@@H]2[C@H]1O ?
Output: 0

Task: Another compound: c1ccc2sc(SN3CCOCC3)nc2c1 [N-oxydiethylenebenzothiazole-2-sulfenamide]
Output: 0

Task: And for CC(=C(CCO)SSCC1CCCO1)N(C=O)Cc1cnc(C)nc1N (stereo in doubt) ?
Output: 0

Task: Quick one: CCN(CC)CCCCC1CCN(CC(=O)N2c3ccccc3C(=O)Nc3cccnc32)CC1
Output: 0

Below are some compounds; for each one, tell me its drug sensitivity score.
1. CO[C@H]1/C=C/O[C@@]2(C)Oc3c(C)c(O)c4c(O)c(c(/C=N/N5CCN(C)CC5)c(O)c4c3C2=O)NC(=O)/C(C)=C\C=C\[C@H](C)[C@H](O)[C@@H](C)[C@@H](O)[C@@H](C)[C@H](OC(C)=O)[C@@H]1C
2. CSc1nc(-c2ccc(F)cc2)c(-c2ccnc(N[C@@H](C)c3ccccc3)c2)[nH]1

Output:
[0, 1.9]

List drug sensitivity score for every entry below, keeping the order given.
1. Nc1ccc(S(=O)(=O)Nc2nccs2)cc1
2. CCc1ccc(C2=CC(C)(C)Sc3ccc(C#Cc4ccc(C(=O)O)cc4)cc32)cc1
3. Nc1cccc(CNC(=O)c2ccc(Oc3ccc(OCc4cccc(F)c4)cc3)nc2)c1
4. CN(C)C(=O)CCSC(SCCC(=O)O)c1cccc(/C=C/c2ccc3ccc(Cl)cc3n2)c1 (configuration not stated)
5. Nc1nccc(-c2c(-c3ccc(F)cc3)ncn2C2CCCCC2)n1

Output:
0
0.6
0.9
0
2.3

Give drug sensitivity score for each listed item.
1. Oc1c(Br)cc(Br)c2cccnc12
2. CN1C(=O)CC(C)(c2ccccc2)C1=O (configuration not stated) [methsuximide]
3. COc1ccc2cc(C(C)C(=O)Oc3ccc(C(N)=S)cc3)ccc2c1 (configuration not stated)
4. Clc1cccc(Cl)c1CSc1nnc(-c2cnccn2)s1
5. CCC(CC)C(c1ccc(Nc2nc3ccccc3s2)cc1)n1cncn1 (configuration not stated)
6. CC(C)CN(C[C@@H](O)[C@H](Cc1ccccc1)NC(=O)O[C@H]1CCOC1)S(=O)(=O)c1ccc(N)cc1

Output:
1. 0
2. 0
3. 0
4. 0.9
5. 1.2
6. 0.6

---

system: HepG2; assay: cell viability relative to DMSO; higher = less toxic; details: 72 h; 1 nM
Could you please report measured cell viability for the items listed next?
One number for each entry, in %.

Example cases with answers are listed next.
Task: Given Nc1nc(=O)n([C@H]2C[C@H](O)[C@@H](CO)O2)cc1Cl [cytochlor] , state its recorded cell viability.
Output: 114

Task: Follow-up item: CCC(CC)C(c1ccc(Nc2nc3ccccc3s2)cc1)n1cncn1 (stereo unspecified) [talarozole]
Output: 92.3

Task: Request: CCC(=O)OCC(=O)[C@@]1(OC(=O)CC)[C@@H](C)C[C@H]2[C@@H]3CCC4=CC(=O)C=C[C@]4(C)[C@@]3(F)[C@@H](O)C[C@@]21C [BETAMETHASONE 17,21-DIPROPIONATE]
Output: 103

Task: Do the same for CCc1ccc(C2=CC(C)(C)Sc3ccc(C#Cc4ccc(C(=O)O)cc4)cc32)cc1 please
Output: 94.7

Task: Then what about the molecule CN(C)Cc1ccc(-c2nc3cccc4c3n2CCNC4=O)cc1 ?
Output: 109

Task: What about O=c1c(O)c(-c2ccc(O)c(O)c2)oc2cc(O)cc(O)c12 [quercetin] ?
Output: 94.1

Task: Do the same for COC(=O)C1=C(C)N(C)C(C)=C(C(=O)OC)C1c1ccc(C(F)(F)F)cc1 [BAY-W-9798] please
Output: 96.7

Task: Then C[C@@H](O[C@H]1OCCN(Cc2nn(P(=O)(O)O)c(=O)[nH]2)[C@H]1c1ccc(F)cc1)c1cc(C(F)(F)F)cc(C(F)(F)F)c1 [fosaprepitant-dimeglumine] ?
Output: 93.6

Task: Same read-out for COc1cccc(CN(C(=O)CC(C)(C)C)[C@H]2C[C@@H](C(=O)N3CCNCC3)N(Cc3ccc4c(c3)OCO4)C2)c1 ?
Output: 94.8

Task: # repeat for CCCNCC(O)COc1ccccc1C(=O)CCc1ccccc1 (stereo unspecified) [propafenone]
Output: 99.3

For the 6 molecules below, give their cell viability values.
1. CC(=O)N[C@H](Cc1ccc2ccccc2c1)C(=O)N[C@H](Cc1ccc(Cl)cc1)C(=O)N[C@H](Cc1cccnc1)C(=O)N[C@@H](CO)C(=O)N[C@@H](Cc1ccc(NC(=O)[C@@H]2CC(=O)NC(=O)N2)cc1)C(=O)N[C@H](Cc1ccc(NC(N)=O)cc1)C(=O)N[C@@H](CC(C)C)C(=O)N[C@@H](CCCCNC(C)C)C(=O)N1CCC[C@H]1C(=O)N[C@H](C)C(N)=O [degarelix]
2. CCCCc1ccc2[nH]c(NC(=O)OC)nc2c1 [parbendazole]
3. O=C(N[C@@H]1CC[C@@H](c2cccc(F)c2F)CN(CC(F)(F)F)C1=O)N1CCC(n2c(=O)[nH]c3ncccc32)CC1 [telcagepant]
4. CCN(CC)c1ccc(/C=N/NC(=O)c2ccc(O)cc2)cc1 [DY131]
5. O=C(O)CCCC[C@@H]1SC[C@@H]2NC(=O)N[C@@H]21 [biotin]
6. CCS(=O)(=O)N(Cc1cccnc1)c1cccc(-c2ccc(C#N)cc2)c1 [CBiPES]

Output:
[103, 82.9, 102, 102, 111, 98.5]

---

tested on: HepG2; assay: cell viability relative to DMSO; higher = less toxic; details: 72 h; 100 nM
experimental readout: cell viability (%)
One number for each entry, in %.

Take a look at these entries with their results.
Task: Reported cell viability for CCCN(CCC)S(=O)(=O)c1ccc(C(=O)O)cc1 [probenecid] : what is it?
Output: 97

Task: Now try Cc1nc(C#Cc2ccnc(Cl)c2)c(C)n1-c1ccc(F)cc1 [basimglurant] .
Output: 102

Task: Then what about the molecule c1ccc(C2CN3CCSC3=N2)cc1 (centres undefined) [tetramisole] ?
Output: 96.2

Take each entry in turn and give its cell viability.
1. CCOc1cc(C(=O)N2CCC(N3CCN(C)CC3)CC2)ccc1Nc1ncc2c(n1)N(C1CCCC1)c1ccccc1C(=O)N2C [XMD17-109]
2. CC(OC(=O)NCC1(CC(=O)O)CCCCC1)OC(=O)C(C)C (centres undefined) [gabapentin-enacarbil]
3. CCCCCOc1ccc(-c2cc(-c3ccc(C(=O)N[C@H]4C[C@@H](O)[C@@H](O)NC(=O)[C@@H]5[C@@H](O)[C@@H](C)CN5C(=O)[C@H]([C@H](O)CC(N)=O)NC(=O)[C@H]([C@H](O)[C@@H](O)c5ccc(O)c(OS(=O)(=O)O)c5)NC(=O)[C@@H]5C[C@@H](O)CN5C(=O)[C@H]([C@@H](C)O)NC4=O)cc3)no2)cc1 [micafungin]
4. O=C1CCC[C@@H]2[C@H]3C[C@@H](CN12)[C@@H]1CCCCN1C3 [lupanine]
5. Cc1cc(O)cc(C)c1Cl [chloroxylenol]
6. CC(=O)N[C@@H](CCC(N)=O)C(=O)O [aceglutamide]

Output:
[94.2, 94.7, 106, 93, 105, 104]

Give me cell viability for each of these molecules, listed below.
1. COc1cc(C[C@H]2c3cc(OC)c(OC)cc3CCN2C)c(Oc2cc3c(cc2OC)-c2c(OC)c(OC)cc4c2[C@H](C3)N(C)CC4)cc1OC [thaliblastine]
2. CN(C)C(=O)CCSC(SCCC(=O)O)c1cccc(/C=C/c2ccc3ccc(Cl)cc3n2)c1 (centres undefined) [MK-571]
3. O=C(NCCCNc1nc(Nc2cccc(NC(=O)N3CCCC3)c2)ncc1I)c1cccs1 [BX-795]
4. Cc1ccccc1C(=O)Nc1ccc(C(=O)N2CCCC(O)c3cc(Cl)ccc32)c(C)c1 (centres undefined) [tolvaptan]
5. CCCCCCCCCCCCCCSCC(=O)O [tetradecylthioacetic-acid]

Output:
1. 96.3
2. 97.7
3. 96.7
4. 96.4
5. 86.4

Batch request: cell viability for each of the following molecules.
1. O=C(O)c1cccnc1 [niacin]
2. CN(C)C[C@H](O)Cn1c2ccc(Br)cc2c2cc(Br)ccc21 (racemic) [wiskostatin]
3. C=C1CC[C@H](O)C/C1=C/C=C1\CCC[C@]2(C)[C@@H]([C@H](C)/C=C/[C@H](C)C(C)C)CC[C@@H]12 [ergocalciferol]
4. COc1cc(N)c(Cl)cc1C(=O)N[C@@H]1CCN(CCCOc2ccc(F)cc2)C[C@@H]1OC (racemic) [cisapride]
5. COC(=O)C[C@H]1CC(c2ccc(O)cc2)=NO1 [ISO-1]

Output:
114
107
112
96
102
